- targetDesc: human α7 nAChR (Homo sapiens)
- Construct: expressed in transfected cells; host or cells: GH4C1 cells derived from rat pituitary (ATCC CCL-82.2)
- Sequence (P36544 23-502): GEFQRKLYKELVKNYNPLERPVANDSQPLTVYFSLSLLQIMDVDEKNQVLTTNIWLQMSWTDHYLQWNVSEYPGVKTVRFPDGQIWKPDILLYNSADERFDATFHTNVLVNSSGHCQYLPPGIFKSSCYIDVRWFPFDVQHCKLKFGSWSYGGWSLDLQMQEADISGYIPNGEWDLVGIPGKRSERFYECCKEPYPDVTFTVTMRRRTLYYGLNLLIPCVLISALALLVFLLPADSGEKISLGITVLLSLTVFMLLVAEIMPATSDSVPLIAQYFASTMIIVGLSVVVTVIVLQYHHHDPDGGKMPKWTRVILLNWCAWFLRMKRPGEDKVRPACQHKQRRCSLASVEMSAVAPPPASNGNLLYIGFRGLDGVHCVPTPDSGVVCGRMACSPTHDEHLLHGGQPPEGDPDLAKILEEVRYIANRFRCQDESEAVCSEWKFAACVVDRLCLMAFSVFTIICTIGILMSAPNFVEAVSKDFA
- method: Evaluation of PAM activity with human α7 nACh receptor stably expressing cells (aequorin luminescence, FDSS7000)
- Assay type: cell-based
- measurementConditions: test compound 10 μmol/L; ACh added at EC20; ratio of RLU (Max-Min) of test wells to control wells
# label = yes (1) if α7PAM (%) @ 10 μmol/L >= 400% else no (0)

Answered examples (4):
INSERT INTO assay_data (compound, group) VALUES
  ('COc1nn(C2CCN(C(=O)NC3CCOCC3)CC2)c2ccc(C(F)(F)F)cc12', 'yes (1)'),
  ('O=C(C1CCOCC1)N1CCC(n2ncc3cc(F)ccc32)CC1', 'no (0)'),
  ('CCOc1nn(C2CCN(C(=O)NC3CCOCC3)CC2)c2ccc(C(F)(F)F)cc12', 'no (0)'),
  ('COCC1CCC(NC(=O)N2CCC(n3ncc4cc(C)ccc43)CC2)CC1 (centres unmarked)', 'yes (1)');

# input Is α7PAM (%) @ 10 μmol/L for `COc1ccc(CNC(=O)N2CCC(n3ncc4cc(C5CC5)ccc43)CC2)cc1` at or above 400%?
# output yes (1)

All values here come from patent US8765786B2.
